Reference source for all entries: ChEMBL document CHEMBL1201862

test system: SN12C; experiment: NCI tumour cell line growth inhibition, 48 h
Calls of active or inactive are those of the source. Cut-off read from the data, not from the text of the source: active = GI50 up to about 1.1 µM and inactive = higher.
Return exactly one item of active, inactive

Record excerpt, results attached:
compound=CC1(C)CC(=O)C(=CNC(N)=S)C(=O)C1 category=inactive
compound=COc1cccc(NC(=O)N/C(=C/c2ccc(N(CCC#N)CCC#N)cc2)NC(=O)c2cc([N+](=O)[O-])ccc2Cl)c1 category=inactive
compound=CCNc1cc2oc(=O)cc(C(F)(F)F)c2cc1C category=inactive
compound=Cc1ccc(S(=O)(=O)Oc2ccc(OS(=O)(=O)c3ccc(C)cc3)c3c2C(=O)c2ccccc2C3=O)cc1 category=inactive
compound=CC(=O)c1cc(C)n2c1CS[C@@H]2c1ccccc1 category=inactive
compound="COC1OC(=O)C(OC)C(OC)C1OC (stereo not given)" category=inactive
compound="C[C@]12c3c4cc(NC(=O)C(=O)NCc5ccc(-c6ccccn6)nc5)cc3Oc3cc(NC(=O)C(=O)NCc5ccc(-c6ccccn6)nc5)cc(c31)OC1C=C(NC(=O)C(=O)NCc3ccc(-c5ccccn5)nc3)C=C(O4)C12 (stereo not given in full)" category=inactive
compound="CCCN(CCCC(NC(C)=O)C(=O)NCc1ccccc1)C(=O)NC (stereo not given)" category=inactive

Q: Which outcome did this test record for the compound Cc1[nH]c(=O)[nH]c(=O)c1/C=C/C(=O)NC(CO)C[S+]([O-])Cc1ccccc1 (stereo not given) ?
A: inactive

###

test system: NCI-H226; assay: NCI tumour cell line growth inhibition, 48 h
Calls of active or inactive are those of the source. Cut-off read from the data, not from the text of the source: active = GI50 up to about 1.1 µM and inactive = higher. Square brackets hold non-standard residues; d marks the D form. Peptide text beside a SMILES is read from it. * marks the point of attachment. Tyr(3-Br) = N[C@@H](Cc1ccc(O)c(Br)c1)C(=O)O; Boc = CC(C)(C)OC(=O)*
Tick one outcome: active, inactive

Please review the entries below; each comes with its answer.
molecule=COc1cc(/C=C2/C(=O)N(C(=O)c3ccccc3O)N=C2C)cc(OC)c1OC category=inactive
molecule="CC(C)(C)OC(=O)NCCCCC1NC(=O)[C@@H]2Cc3c([nH]c4ccccc34)C(c3ccccc3)N2C1=O (stereo not given in full)" category=inactive
molecule=Nc1nc(Cl)c(CO)c(NCC2(CO)CCC2)n1 category=inactive
molecule="Cc1oc2c(C)c3oc(=O)cc(C)c3cc2c1CN1C(=O)C2OCCOCCOCCOCCOCCO[C@H]2C1=O (stereo not given in full)" category=inactive
molecule="N=C(N)SC1c2ccccc2-c2cc([N+](=O)[O-])ccc21 (stereo not given)" category=inactive

Q: Hello, I am checking results. What call was entered for COC(=O)[C@H](Cc1ccc(O)c(Br)c1)NC(=O)[C@H](Cc1ccc(O)cc1)NC(=O)OC(C)(C)C (Boc-Tyr-[Tyr(3-Br)]-OMe) ?
A: inactive

Q: State the result this test recorded for Sc1nnc(-c2ccccc2Nc2ccccc2-c2nnc(S)n2-c2ccccc2)n1-c1ccccc1 .
A: inactive

Q: Dear all, I need the recorded test outcome for COc1cc2c(cc1OCCCNC(=O)c1cc3ccccc3[nH]1)N=C[C@@H]1CCCN1C2=O , thank you.
A: active

Q: Call for entry O=C1NC(N2CCCC(CO)C2)=N/C1=C\c1ccccc1 (stereo not given) :
A: inactive

Q: Returns: the outcome recorded for CC(=O)[O-].Cc1ncc(CO)c(/C=N/NC(N)=S)c1[O-].[Zn+2] in this assay.
A: inactive

Q: Hi, do you know how COc1ccc(/C=N/CCC/N=C/c2ccc(OC)cc2O)c(O)c1 came out in this test?
A: inactive

###

tested on: SW-620; assay: NCI tumour cell line growth inhibition, 48 h
Calls of active or inactive are those of the source. Rule as the data show it: active = GI50 up to about 1.1 µM and inactive = higher.
outcome.measure: GI50

Examples with their reported GI50 follow.
molecule="C=C1CC=CC(C)(C)C1C/C=C(\\C)C(O)CBr (stereo unspecified)" tgt=SW-620 test_result="33.1 µM (inactive)"
molecule="CC1(C)C2CCC(=O)C1C(OCc1ccccc1)C2 (stereo unspecified)" tgt=SW-620 test_result="> 100 µM (inactive)"
molecule="CC1(C23CC4CC(CC(C4)C2)C3)n2c(=O)n(-c3ccccc3)c(=O)n2C1(C)C12CC3CC(CC(C3)C1)C2 (stereo unspecified)" tgt=SW-620 test_result="> 100 µM (inactive)"
molecule="O=C(Nc1ccc(N2C(=O)CSC2c2ccccc2O)cc1)c1ccc(N2C(=O)CSC2c2ccccc2O)cc1 (stereo unspecified)" tgt=SW-620 test_result="> 100 µM (inactive)"
molecule=CC1(C)C(=O)C(C)(C)C1=NNC(N)=S tgt=SW-620 test_result="> 100 µM (inactive)"

Here is the next item to consider.
Q: Lab note: need GI50 with SW-620 for entry CC1=C(C)SC(=C2Sc3c(n(C)c(=O)n(C)c3=O)S2)S1 , please look it up.
A: > 100 µM (inactive)

###

tested on: NCI/ADR-RES; experiment: NCI tumour cell line growth inhibition, 48 h
Active and inactive are the calls of the source. Rule as the data show it: active = GI50 up to about 1.1 µM and inactive = higher.
Each record here notes measured GI50.

Below are worked cases with known answers.
compound=CC(C)(C)c1ccc(O)c(C(c2ccc([N+](=O)[O-])cc2)c2cc(C(C)(C)C)ccc2O)c1 test_result="2.73 µM (inactive)"
compound=O=C(/C=C/c1ccsc1)c1cccs1 test_result="20.7 µM (inactive)"
compound=Cc1cnc2c(c1)C(=O)N(c1ccc([N+](=O)[O-])cc1)S2(=O)=O test_result="74.3 µM (inactive)"
compound=NS(=O)(=O)c1ccc(NCc2cccc3c(=O)c4ccc(Cl)cc4oc23)cc1 test_result="32.5 µM (inactive)"

Okay, next one:
Q: GET /values?readout=GI50&item= COc1ccc2nc3n(c2c1)C(c1c(F)cccc1F)SC3 (stereo not given)
A: 19.1 µM (inactive)

###

tested on: RPMI-8226; assay: NCI tumour cell line growth inhibition, 48 h
The source made the active and inactive calls. No stated cut-off is given here; in the data, active = GI50 up to about 1.1 µM and inactive = higher. Square brackets hold non-standard residues; d marks the D form. Peptide text beside a SMILES is read from it. * marks the point of attachment. Tyr(3-Br) = N[C@@H](Cc1ccc(O)c(Br)c1)C(=O)O; Boc = CC(C)(C)OC(=O)*
Listed here: items and their measured GI50.

compound=Oc1ccc2ccccc2c1-c1c(Nc2ccccc2)ccc2ccccc12 outcome_measure=GI50 test_result="17.8 µM (inactive)"
compound=CC(=O)Nc1sccc1S(=O)(=O)c1ccc(Cl)cc1 outcome_measure=GI50 test_result="> 100 µM (inactive)"
compound="c1ccc(C2=NOC3COc4ccccc4OCC23)cc1 (stereo not given)" outcome_measure=GI50 test_result="> 100 µM (inactive)"
compound="COc1ccc(OC(C(=O)O)c2ccccc2)c2c1CCCC2=O (stereo not given)" outcome_measure=GI50 test_result="> 100 µM (inactive)"
compound="COC(=O)[C@H](Cc1ccc(O)c(Br)c1)NC(=O)[C@H](Cc1ccc(O)cc1)NC(=O)OC(C)(C)C (Boc-Tyr-[Tyr(3-Br)]-OMe)" outcome_measure=GI50 test_result="28.4 µM (inactive)"
compound=Cc1cc(C)c(C#N)c(SC(=S)NC(=O)c2ccccc2)n1 outcome_measure=GI50 test_result="> 100 µM (inactive)"
compound=Cn1c(-c2ccccc2)c/c(=N\NS(C)(=O)=O)c2cc(S(=O)(=O)O)ccc21 outcome_measure=GI50 test_result="> 100 µM (inactive)"
compound=CC(C)(C)OC(=O)N[C@@H](Cc1ccccc1)C(=O)N1CC[C@@H](C(=O)N2[C@H]3CC4CC[C@@]3(CS2(=O)=O)C4(C)C)N1 outcome_measure=GI50 test_result="82.6 µM (inactive)"
compound=COCCOC(=O)C1=C(O)c2ccccc2S(=O)(=O)N1C outcome_measure=GI50 test_result="> 100 µM (inactive)"
compound=COc1cccc(NC(=O)N/C(=C/c2ccc(N(CCC#N)CCC#N)cc2)NC(=O)c2cc([N+](=O)[O-])ccc2Cl)c1 outcome_measure=GI50 test_result="51.6 µM (inactive)"

Q: For the compound CN(C)c1ccc(/C=C(\NC(=O)c2ccccc2)c2nc3ccc4c(c3[nH]2)C(=O)c2ccccc2C4=O)cc1 , what GI50 is on record?
A: 3.18 µM (inactive)

Q: Given the entry COC(=O)c1c(O)ccc2c1c1c(n2Cc2ccc(Cl)cc2Cl)C(=O)c2ccccc2C1 , report its measured GI50.
A: 19.7 µM (inactive)

Q: Quick one: GI50 of O=C(NCCO)c1cc2c(cn1)[nH]c1ccccc12 ?
A: > 100 µM (inactive)

Q: Which GI50 is reported for this compound? CCOC(=O)C(NC(=O)CC(C)C)(Nc1ccc(S(=O)(=O)Nc2nc(C)cc(C)n2)cc1)C(F)(F)F (stereo not given)
A: > 100 µM (inactive)

Q: Which GI50 is reported for this compound? CC#N.O[C@@H]1CCCC[C@H]1O.O[C@@H]1CCCC[C@H]1O.[TeH2]
A: 26.7 µM (inactive)

###

tested on: PC-3; assay: NCI tumour cell line growth inhibition, 48 h
Active and inactive are the calls of the source. No stated cut-off is given here; in the data, active = GI50 up to about 1.1 µM and inactive = higher.
outcome.measure: GI50

Examples with their reported GI50 follow.
compound=COc1ccc(C(=O)N2CCN(c3ccc4c(c3)OCC(=O)N4)CC2)cc1 tgt=PC-3 outcome_measure=GI50 test_result="> 100 µM (inactive)"
compound=NC1=Nc2ccccc2Sc2nccn21 tgt=PC-3 outcome_measure=GI50 test_result="22.6 µM (inactive)"
compound=C=CC[C@@H]1C(=O)[C@@]2(O[Si](C(C)C)(C(C)C)C(C)C)CC[C@@H]1C[C@H]2NC(=O)OCC(Cl)(Cl)Cl tgt=PC-3 outcome_measure=GI50 test_result="32.9 µM (inactive)"

Q: Form: Entry = CC(C)CC(N)C(=O)Nc1ccc2ccccc2c1 (stereo not given) | System = PC-3 | GI50 = ____
A: > 100 µM (inactive)

Q: API: value(readout=GI50, system=PC-3) for record COc1cc2c(cc1-c1coc3cc(OCC=C(C)C)ccc3c1=O)OCO2
A: 42.8 µM (inactive)
